experiment.description: Sputum tobramycin concentration, conventional nebulizer versus high compliance system
Assay type: in vivo, patients
recorded.conditions: human, inhaled, 30 mg delivered dose via the high compliance system
property.measured: concentration at 2 h (ng/g)
Give just the numeric value; ng/g need not be written.

Prompt: Which concentration at 2 h is listed for NC[C@H]1O[C@H](O[C@H]2[C@H](O)[C@@H](O[C@H]3O[C@H](CO)[C@@H](O)[C@H](N)[C@H]3O)[C@H](N)C[C@@H]2N)[C@H](N)C[C@@H]1O [Tobramycin] ?
Response: 98000
